All values here come from patent US20240122865A1.

# System: Chi18 model RNA
# ASSAY_EXPLANATION: TapeStation Assay, Chi18 model RNA
# Format: biochemical, Trichoderma atroviride
# Set-up: unit not given here
# MEASUREMENT_PARAMETERS: intact Chi18 RNA after 15 min at 50° C., 20 mM amino acids in 50 mM CAPS pH 11, run #1
Parameter Conc. chi18#1: see the listing below.
PROPERTY_MEASURED: Conc. chi18#1

1) NC(=O)CC[C@H](N)C(=O)O [Glutamine] ... 8.46
2) N[C@@H](CC(=O)O)C(=O)O [Aspartic acid] ... 28
3) NCCCC[C@H](N)C(=O)O [Lysine] ... 11.7
4) N[C@@H](CO)C(=O)O [Serine] ... 22.5
5) N[C@@H](Cc1ccccc1)C(=O)O [Phenylalanine] ... 9.19
6) NC(=O)C[C@H](N)C(=O)O [Asparagine] ... 11.2
7) N[C@@H](Cc1c[nH]cn1)C(=O)O [Histidine] ... 1.58

---

# EXPERIMENTAL_SYSTEM: Chi18 model RNA
# ASSAY_EXPLANATION: Droplet Digital Polymerase Chain Reaction (ddPCR) Assay, Chi18
# MEASUREMENT_PARAMETERS: percent protection, pH 11.0, 30° C., 16 hours, n = 2
PROPERTY_MEASURED: EC50

1) N[C@@H](CO)C(=O)O ... > 30 mM
2) N[C@@H](Cc1ccccc1)C(=O)O ... > 18 mM
3) O=C(O)CCP(CCC(=O)O)CCC(=O)O ... > 30 mM
4) N=C(N)NCCC[C@H](N)C(=O)O ... 7.6 mM
5) O=C(O)[C@@H]1CCCN1 ... > 30 mM
6) CC(C)C[C@H](N)C(=O)O ... > 25 mM
7) CSCC[C@H](N)C(=O)O ... > 30 mM
8) N[C@@H](CCC(=O)O)C(=O)O ... 6.7 mM
9) N[C@@H](Cc1ccc(O)cc1)C(=O)O ... > 30 mM
10) N[C@@H](CCC(=O)N[C@@H](CS)C(=O)NCC(=O)O)C(=O)O ... > 30 mM
11) NC(=O)C[C@H](N)C(=O)O ... 4.9 mM
12) C[C@H](N)C(=O)O ... > 30 mM
13) NCC(=O)O ... 15 mM
14) NCCCC[C@H](N)C(=O)O ... > 30 mM
15) CC(C)[C@H](N)C(=O)O ... > 30 mM
16) N[C@@H](Cc1c[nH]cn1)C(=O)O ... > 30 mM
17) C[C@@H](O)[C@H](N)C(=O)O ... > 30 mM
18) CC[C@H](C)[C@H](N)C(=O)O ... > 19 mM

---

Parameter T0 R1 peak area at 250 nm: see the listing below.
# Tested on: FgenL mRNA construct
# ASSAY_EXPLANATION: Size Exclusion Base Hydrolysis Degradation Assay, FgenL
# Format: biochemical, Trichoderma atroviride
# MEASUREMENT_PARAMETERS: FgenL 0.1 mg/mL, 25 mM amino acid, 50 mM CAPS, T=0, replicate 1
PROPERTY_MEASURED: T0 R1 peak area at 250 nm

1. NCC(=O)O [Glycine] ... 18897
2. CC(C)C[C@H](N)C(=O)O [Leucine] ... 13599
3. CC[C@H](C)[C@H](N)C(=O)O [Isoleucine] ... 14903
4. N[C@@H](CC(=O)O)C(=O)O [Aspartic acid] ... 17497
5. NC(=O)CC[C@H](N)C(=O)O [Glutamine] ... 15510
6. O=C(O)[C@@H]1C[C@@H](O)CN1 [Hydroxyproline] ... 16626
7. N[C@@H](Cc1c[nH]c2ccccc12)C(=O)O [Tryptophan] ... 15191
8. N[C@@H](CCC(=O)N[C@@H](CS)C(=O)NCC(=O)O)C(=O)O [Glutathione] ... 16850
9. O=C(O)[C@@H]1CCCN1 [Proline] ... 17907
10. N[C@@H](Cc1ccccc1)C(=O)O [Phenylalanine] ... 18152
11. C[C@@H](O)[C@H](N)C(=O)O [Threonine] ... 17711
12. C[C@H](N)C(=O)O [Alanine] ... 17478
13. N[C@@H](Cc1c[nH]cn1)C(=O)O [Histidine] ... 18949
14. NC(=O)C[C@H](N)C(=O)O [Asparagine] ... 14320
15. CC(C)[C@H](N)C(=O)O [Valine] ... 17745
16. NCCCC[C@H](N)C(=O)O [Lysine] ... 17400
17. N=C(N)NCCC[C@H](N)C(=O)O [Arginine] ... 14624
18. N[C@@H](CCC(=O)O)C(=O)O [Glutamic acid] ... 14529
19. CSCC[C@H](N)C(=O)O [Methionine] ... 15213
20. N[C@@H](Cc1ccc(O)cc1)C(=O)O [Tyrosine] ... 22082
21. N[C@@H](CO)C(=O)O [Serine] ... 17044

---

Parameter T2 R1 peak area at 250 nm: see the listing below.
# Test system: FgenL mRNA construct
# ASSAY_EXPLANATION: Size Exclusion Base Hydrolysis Degradation Assay, FgenL
# Format: biochemical, Trichoderma atroviride
# MEASUREMENT_PARAMETERS: FgenL, 25 mM amino acid, 50 mM CAPS pH 11, room temperature, 2 hrs, replicate 1
PROPERTY_MEASURED: T2 R1 peak area at 250 nm

1. NCCCC[C@H](N)C(=O)O ... 0
2. C[C@@H](O)[C@H](N)C(=O)O ... 8436
3. NC(=O)CC[C@H](N)C(=O)O ... 5779
4. N[C@@H](Cc1c[nH]cn1)C(=O)O ... 8325
5. N=C(N)NCCC[C@H](N)C(=O)O ... 0
6. N[C@@H](Cc1c[nH]c2ccccc12)C(=O)O ... 4991

---

Parameter pEC50: see the listing below.
# EXPERIMENTAL_SYSTEM: Chi18 model RNA
# ASSAY_EXPLANATION: Droplet Digital Polymerase Chain Reaction (ddPCR) Assay, Chi18
# MEASUREMENT_PARAMETERS: percent protection, pH 11.0, 30° C., 16 hours, n = 2
pEC50: −log10 of the molar value.
PROPERTY_MEASURED: pEC50

1. N[C@@H](CSSC[C@H](N)C(=O)O)C(=O)O ... < 1.54
2. NC(=O)CC[C@H](N)C(=O)O ... 2.06
3. N[C@@H](Cc1c[nH]c2ccccc12)C(=O)O ... < 1.52
4. O=C(O)[C@@H]1C[C@@H](O)CN1 [Hydroxyproline] ... < 1.52
5. N[C@@H](CC(=O)O)C(=O)O ... 2.21
6. N[C@@H](CS)C(=O)O ... < 1.52

---

# Test system: Chi18 model RNA
# ASSAY_EXPLANATION: TapeStation Assay, Chi18 model RNA
# Type: biochemical, Trichoderma atroviride
# MEASUREMENT_PARAMETERS: Chi18 RNA, 20 mM amino acids, 50 mM CAPS pH 11, 50° C. 15 min, vs Time 0, Avg N=2
Parameter % Control Avg.: see the listing below.
PROPERTY_MEASURED: % Control Avg. (%)

1. N[C@@H](CCC(=O)O)C(=O)O ... 85.3
2. O=C(O)[C@@H]1C[C@@H](O)CN1 [Hydroxyproline] ... 17.3
3. N=C(N)NCCC[C@H](N)C(=O)O ... 4.9
4. C[C@H](N)C(=O)O ... 43.3
5. N[C@@H](CO)C(=O)O ... 42.2
6. CSCC[C@H](N)C(=O)O ... 49.7
7. CC(C)C[C@H](N)C(=O)O ... 31.4
8. C[C@@H](O)[C@H](N)C(=O)O ... 46.1
9. NCCCC[C@H](N)C(=O)O ... 18.7
10. NC(=O)CC[C@H](N)C(=O)O ... 16.8
11. O[C@H](CS)[C@H](O)CS (racemic) ... 10.7
12. NCC(=O)O ... 46.7
13. N[C@@H](CC(=O)O)C(=O)O ... 53.0
14. N[C@@H](CCC(=O)N[C@@H](CS)C(=O)NCC(=O)O)C(=O)O ... 28.0
15. O=C(O)[C@@H]1CCCN1 ... 35.8
16. N[C@@H](Cc1ccccc1)C(=O)O ... 21.3
17. NC(=O)C[C@H](N)C(=O)O ... 23.8
18. O=C(O)CCP(CCC(=O)O)CCC(=O)O ... 2.6
19. N[C@@H](Cc1c[nH]c2ccccc12)C(=O)O ... 2.9
20. CC(C)[C@H](N)C(=O)O ... 32.5
21. N[C@@H](Cc1ccc(O)cc1)C(=O)O ... 31.9
22. N[C@@H](CSSC[C@H](N)C(=O)O)C(=O)O ... 47.9
23. N[C@@H](CS)C(=O)O ... 4.0
24. N[C@@H](Cc1c[nH]cn1)C(=O)O ... 3.1
25. CC[C@H](C)[C@H](N)C(=O)O ... 21.8
